These entries and their values trace back to patent US8383652B2.

STUDY_SYSTEM: PPARγ (Homo sapiens)
Construct: The reporter is ERE-βGlob-Luc-SV-Neo
Sequence (P37231 238-505 limits assumed): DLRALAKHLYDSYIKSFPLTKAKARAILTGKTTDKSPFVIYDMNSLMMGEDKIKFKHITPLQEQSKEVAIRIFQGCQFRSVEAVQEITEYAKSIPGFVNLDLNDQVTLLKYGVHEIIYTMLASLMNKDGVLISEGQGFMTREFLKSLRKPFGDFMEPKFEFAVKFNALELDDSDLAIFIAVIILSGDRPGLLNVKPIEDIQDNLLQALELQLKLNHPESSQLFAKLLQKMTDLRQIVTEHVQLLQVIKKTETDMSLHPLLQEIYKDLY
ASSAY_NAME: Cross-curve PPAR transactivation test, PPARγ
Type: cell-based
CONDITION_SET: HeLN cells stably transfected with Gal-hPPAR and luciferase reporter; cross curves against reference agonist, Schild regression; n.a means not active; read-out: PPAR gamma Kd app
pKd: −log10 of the molar value.
VALUE_KIND: pKd

Example molecules with recorded pKd:
# MOLECULE, STUDY_SYSTEM, VALUE_KIND, OBSERVED_VALUE
measured = [
    ("CO/C(=C\\c1ccc(-c2cccc(N(C)C(=O)NC3CCCCC3)c2)cc1)C(=O)O [Compound 15]", "PPARγ (Homo sapiens)", "pKd", 8.10),
    ("CO/C(=C\\c1ccc(-c2cccc(N(C)C(=O)NCCc3ccccc3)c2)cc1)C(=O)O [Compound 16]", "PPARγ (Homo sapiens)", "pKd", 8.10),
    ("CCCCNC(=O)N(C)c1cccc(-c2ccc(/C=C(\\OC)C(=O)O)cc2)c1 [Compound 11]", "PPARγ (Homo sapiens)", "pKd", 8.40),
    ("CCCCCCCNC(=O)N(C)c1cccc(-c2ccc(/C=C(\\OCC)C(=O)O)cc2)n1 [Compound 2]", "PPARγ (Homo sapiens)", "pKd", 7.52),
]

(A) CCCCOc1cc(/C=C(\CC)C(=O)O)ccc1-c1cccc(CN(C)C(=O)c2ccccc2)c1 [Compound 22]
(B) CCCCCCCNC(=O)N(C)c1cccc(-c2ccc(/C=C(\F)C(=O)O)cc2)c1 [Compound 6]
Compare the recorded pKd of A and B ; state which is larger. Use the label to indicate which entry you chose.
B

(A) COC(=O)/C(=C/c1ccc(-c2cccc(N(C)C(=O)NC3CCCCC3)c2)cc1)OC [Compound 14]
(B) CCCCCCCNC(=O)N(C)c1cccc(-c2ccc(/C=C(\C)C(=O)O)cc2OCC)c1 [Compound 32]
Compare the recorded pKd of A and B ; state which is larger. Use the label to indicate which entry you chose.
B
(B: 9.00, A: 7.22)

----------
STUDY_SYSTEM: PPARγ (Homo sapiens)
Construct: The reporter is ERE-βGlob-Luc-SV-Neo
ASSAY_NAME: Cross-curve PPAR transactivation test, PPARγ
CONDITION_SET: HeLN cells stably transfected with Gal-hPPAR and luciferase reporter; cross curves against reference agonist, Schild regression; n.a means not active; read-out: PPAR gamma Kd app
pKd: −log10 of the molar value.
VALUE_KIND: pKd

# MOLECULE, pKd
records = [
    ("CCCCCNC(=O)N(C)c1cccc(-c2ccc(/C=C(\\OCC)C(=O)O)cc2)n1 [Compound 3]", 7.52),
]

(A) CCCCCCCC(=O)N(C)Cc1cccc(-c2ccc(/C=C(\OCC)C(=O)O)cc2)c1 [Compound 1]
(B) CCCCCCCNC(=O)N(C)c1cccc(-c2ccc(/C=C(\C)C(=O)O)cc2)c1 [Compound 5]
Compare the recorded pKd of A and B ; state which is larger. Use the label to indicate which entry you chose.
B

----------
STUDY_SYSTEM: PPARδ (Homo sapiens, UniProt Q03181)
Construct: The reporter is ERE-βGlob-Luc-SV-Neo
Sequence (Q03181 211-441 limits assumed): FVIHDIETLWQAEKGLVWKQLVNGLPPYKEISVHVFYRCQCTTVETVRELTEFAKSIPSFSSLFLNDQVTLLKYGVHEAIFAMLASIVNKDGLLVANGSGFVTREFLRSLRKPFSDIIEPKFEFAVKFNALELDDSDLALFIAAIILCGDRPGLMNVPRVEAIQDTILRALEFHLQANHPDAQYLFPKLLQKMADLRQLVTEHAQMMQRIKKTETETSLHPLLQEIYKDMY
ASSAY_NAME: Cross-curve PPAR transactivation test, PPARδ
CONDITION_SET: HeLN cells stably transfected with Gal-hPPAR and luciferase reporter; cross curves against reference agonist, Schild regression; n.a means not active; read-out: PPARs delta Kd app
Procedure: The activation of the receptors with an agonist (activator) in HeLN cells leads to the expression of a reporter gene, luciferase, which, in the presence of a substrate, generates light. The modulation of the receptors is measured by quantifying the luminescence produced after incubating the cells in the presence of a reference agonist. The ligands displace the agonist from its site. The measurement of the activity is performed by quantifying the light produced. […]
VALUE_KIND: Kd (µM)

Example compounds with recorded Kd:
# MOL, OBSERVED_VALUE
data = [
    ("CCCCCNC(=O)N(C)c1cccc(-c2ccc(/C=C(\\OC)C(=O)O)cc2)c1", 4),
    ("CCCCCNC(=O)N(C)c1cccc(-c2ccc(/C=C(\\CC)C(=O)O)cc2)c1", 2),
]

(A) COC(=O)/C(=C/c1ccc(-c2cccc(N(C)C(=O)NC3CCCCC3)c2)cc1)OC
(B) CCCCCNC(=O)N(C)c1cccc(-c2ccc(/C=C(\CCC)C(=O)O)cc2)c1
Compare the recorded Kd of A and B ; state which is larger. Use the label to indicate which entry you chose.
A
(A: 4 µM, B: 2 µM)
